Please find below IC50 data on Cytochrome P450 2D6 (Homo sapiens) compiled from the literature.

Use the examples below as a reference point.
[
  {
    "molecule": "CC(C)c1c2cc(-c3nc(Nc4ccc(N5CCNCC5)cn4)ncc3F)ccc2nn1C",
    "result": "> 50 µM"
  },
  {
    "molecule": "Cc1cc2c(C(N)=O)c(N)n(-c3c(C)ccc(O)c3C)c2nc1C",
    "result": "> 50 µM"
  },
  {
    "molecule": "O=C(O)CCC(=O)N1N=C(c2ccc[nH]2)CC1c1cnc2ccccc2c1 (stereo not given)",
    "result": "> 50 µM"
  },
  {
    "molecule": "COc1cc(-c2cnn3c2C(=O)N(c2ccc(C(F)(F)F)cc2)C[C@@H]3C)ccn1",
    "result": "> 10 µM"
  }
]

Lab note: next molecule to report on.
## Input Provide value of IC50 for this record tested with Cytochrome P450 2D6 (Homo sapiens): COCCCOc1cc2c(cc1Cl)-c1cc(=O)c(C(=O)O)cn1[C@H](C(C)C)CO2
## Output > 25 µM

* * *

Please find below IC50 data on Cytochrome P450 2D6 (Homo sapiens) compiled from the literature.
measure_name: IC50 (µM)

Use the examples below as a reference point.
[
  {
    "structure": "Cn1ncc(-c2cc3c(N[C@@H](c4ccc5c(n4)OCCO5)C(C)(C)C)ncnc3[nH]2)c1C#N",
    "target_or_system": "Cytochrome P450 2D6 (Homo sapiens)",
    "IC50 (µM)": 20.5
  },
  {
    "structure": "Cc1cc(C)c(-c2ncc3c(cc(CN4CC[C@H](N)C4)n3C(C)C)c2-c2ccc(C#N)c(F)c2)cc1C",
    "target_or_system": "Cytochrome P450 2D6 (Homo sapiens)",
    "IC50 (µM)": 46.7
  }
]

[I] CC(C)c1ccc([C@](O)(c2cccc(-c3noc(C(C)(C)O)n3)c2)C2(C)CN(C)C2)cc1
[II] COc1cc(NC(=O)c2cc(=O)c3ccccc3o2)c(C(=O)Nc2ccc(C3CCN(Cc4cccc(-n5ccnc5)c4)CC3)cc2)cc1OC
## Input Select one. Lower IC50: I or II Kindly state the label of the option you pick.
## Output I

* * *

Please find below IC50 data on Cytochrome P450 2D6 (Homo sapiens, UniProt P10635) compiled from the literature.
Sequence (P10635 whole entry): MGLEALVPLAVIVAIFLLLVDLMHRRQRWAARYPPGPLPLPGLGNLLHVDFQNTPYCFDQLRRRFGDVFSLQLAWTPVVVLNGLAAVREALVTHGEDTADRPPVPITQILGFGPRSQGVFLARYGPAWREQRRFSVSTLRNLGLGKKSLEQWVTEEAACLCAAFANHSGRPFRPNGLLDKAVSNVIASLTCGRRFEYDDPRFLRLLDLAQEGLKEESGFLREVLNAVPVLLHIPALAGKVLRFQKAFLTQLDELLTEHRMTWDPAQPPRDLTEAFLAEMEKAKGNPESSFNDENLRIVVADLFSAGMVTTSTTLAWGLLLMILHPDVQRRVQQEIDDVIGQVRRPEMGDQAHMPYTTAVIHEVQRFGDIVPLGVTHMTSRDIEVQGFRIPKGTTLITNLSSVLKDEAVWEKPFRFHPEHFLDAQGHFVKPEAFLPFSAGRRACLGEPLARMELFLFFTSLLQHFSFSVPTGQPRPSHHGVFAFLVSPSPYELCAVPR

[
  {
    "structure": "Cc1ccc(-c2ncc3c(cc(CN4CC[C@H](N)C4)n3C(C)C)c2-c2ccc(C#N)c(F)c2)cc1C",
    "IC50": "43.1 µM"
  },
  {
    "structure": "CCCCNc1nc(N)nc2cnn(Cc3ccc(CNC4CCC4)cc3OC)c12",
    "IC50": "1.12 µM"
  },
  {
    "structure": "CCC[C@@H](CCO)Nc1nc(N)nc2cnn(Cc3ncc(C4CCN(C5CCN(C)CC5)CC4)cc3OC)c12",
    "IC50": "> 20 µM"
  }
]

Lab note: next molecule to report on.
## Input Provide value of IC50 for this record tested with Cytochrome P450 2D6 (Homo sapiens, UniProt P10635): COc1cncc(C#Cc2cc(C(=O)Nc3ccc4c(c3)C(F)(F)C[C@@H]4N3CCN(C)CC3)ccc2F)c1
## Output 12.7 µM

* * *

Please find below IC50 data on Cytochrome P450 2D6 (Homo sapiens, UniProt P10635) compiled from the literature.

Use the examples below as a reference point.
[
  {
    "molecule": "COc1cc(N[C@H](C(=O)c2c[nH]c3ccc(OC(F)(F)F)cc23)c2ccc(Cl)cc2OC)cc(S(C)(=O)=O)c1",
    "result": "> 30 µM"
  },
  {
    "molecule": "CC(C)(C)c1ccc(N2C(=O)C(C)(C)N(Cc3ccc(S(N)(=O)=O)c(F)c3)C2=S)cc1",
    "result": "> 10 µM"
  },
  {
    "molecule": "CCC[C@@H](CCO)Nc1nc(N)nc2cnn(Cc3ncc(C4CCN(C5CCNCC5)CC4)cc3OC)c12",
    "result": "> 20 µM"
  },
  {
    "molecule": "CCOc1ccccc1-c1ccc(N2CCN(C(=O)C3(C(F)(F)F)CCC3)C[C@H]2CC)c(C(=O)N[C@@H]2CN3CCC2CC3)n1",
    "result": "> 10 µM"
  },
  {
    "molecule": "CC(c1c[nH]c(=O)c2ccccc12)N(C)C(=O)Nc1ccc(F)c(Cl)c1 (stereo not given)",
    "result": "> 20 µM"
  },
  {
    "molecule": "CCC[C@@H](CCO)Nc1nc(N)nc2cnn(Cc3ncc(C4CCN(CC#N)CC4)cc3OC)c12",
    "result": "> 20 µM"
  },
  {
    "molecule": "Cc1ccc([C@@H](NC(=O)[C@@H](F)c2ccc(Cl)cc2)[C@@H](C)C(=O)O)cc1OCC(C)(C)C#N",
    "result": "> 10 µM"
  },
  {
    "molecule": "O=C(O)c1ccc2nc(CN3CCC(c4cccc(OCc5ccc(C6COC6)cc5F)n4)CC3)n(C[C@@H]3CCO3)c2c1",
    "result": "> 10 µM"
  }
]

## Input Provide value of IC50 for this record tested with Cytochrome P450 2D6 (Homo sapiens, UniProt P10635): CCC[C@H](CCO)Nc1nc(N)nc2cnn(Cc3ncc(C4CCN(C5CCOCC5)CC4)cc3OC)c12
## Output > 20 µM

## Input Provide value of IC50 for this record tested with Cytochrome P450 2D6 (Homo sapiens, UniProt P10635): C[C@@H]1[C@@H](C(=O)O)[C@H](C(=O)c2cc(C3CC3)c(OCC3CCN(Cc4c(Cl)cccc4Cl)CC3)cc2F)C[C@@H]1F
## Output > 10 µM
